The measurements presented in this section are drawn from patent US20250027068.

Below, each entry is listed with its recorded Enzyme Activity Endpoint Assay (purified): Fab'2.
# Subject of test: pooled human IgG
Unit ng/µL implied. Number only.

Reference set (3 entries):
* PRT-130 (protein) MRNATEAYAKEVPHQITSVWTKGVTPLTPEQFRYNNEDVIHAPYLAHQGWYDITKAFDGKDNLLCGAATAGNMLHWWFDQNKTEIEAYLSKHPEKQKIIFNNQELFDLKAAIDTKDSQTNSQLFNYFRDKAFPNLSARQLGVMPDLVLDMFINGYYLNVFKTQSTDVNRPYQDKDKRGGIFDAVFTRGDQTTLLTARHDLKNKGLNDISDIIKQELTEGRALALSHTYANVSISHVINLWGADFNAEGNLEAIYVTDSDSNASIGMKKYFVGINAAGHVAISAKKIEGENIGAQVLGLFTLSSGKDIWQKLS | 592
* PRT-139 (protein) MRNATEAYAKEVPHQITSVWTKGVTPLTPEQFRYNNEDVIHAPYLANQGWYDITKAFDGKDNLLCGAATAGNMLHWWFDQNKTEIEAYLSKHPEKQKIIFNNQELFDLKAAIDTKDSQTNSQLFNYFRDKAFPNLSARQLGVMPDLVLDMFINGYYLNVFKTQSTDVNRPYQDKDKRGGIFDAVFTRGDQTTLLTARHDLKNKGLNDISTIIKQELTEGRALALSHTYANVSISHVINLWGADFNAEGNLEAIYVTDSDANASIGMKKYFVGINAHGHVAISAKKIEGENIGAQVLGLFTLSSGKDIWQKLS | 733
* PRT-166 (protein) MANQEIRYSEVTPYHVTSVWTKGVTPPANFTQGEDVFHAPYVANQGWYDITKAFDGGDDLLCGAATAGNMLHWWFDQNKDQIKRYLEEHPEKQKINFNGEQMFDVKEAIDTKNSQTNSELFNYFKEKAFPYLSTKHLGVFPDHVIDMFINGYRLSLTNHGPTPVKEGSKDPRGGIFDAVFTRGDQSKLLTSRHDFKEKNLKEISDLIKKELTEGKALGLSHTYANVRINHVINLWGADFDSNGNLKAIYVTDSDSNASIGMKKYFVGVNSAGKVAISAKEIKEDNIGAQVLGLFTLSTGQDSWNQTN | 597

Now take the following protein into account.
q: Look up Enzyme Activity Endpoint Assay (purified): Fab'2: PRT-322 (protein) MTITSVWTKGVTPPTPEDFRENNEDVLHAPYVANQGWYDITKTFDGKDNLLCGAATAGNMLHWWFDQNKEEIERYLKKHPEKQKIIFNNQELFDVKAAIDTKDSQTNSKLFDYFRDKAFPNLSARQLGVMPDLVLDMFINGYYLNLGKTQSTDVNRPYQDKDKRGGIFDAVFTRGDQTTLLTARHDLKNKGLNEISDLIKQELTEGKALALSHTYANVRINHVINLWGADFDAEGNLIAIYVTDSDANASIGMKKYFVGRNANGKVAISAKKIEGDNIGAQVLGLFTLSTGQDQWQKLS
a: 506
